biological target: human ether-à-go-go-related gene (hERG) potassium channel (human); assay: primary screen, population patch clamp on CHO cells stably expressing hERG; higher = less effect of the substance
Among all 310,000 compounds or so, about 14,000 (4.5%) showed an effect of 50% or more. Effects have a minus sign here. The list comes from a sample in which strong results are over-represented; it also holds close analogues and randomly drawn compounds.
EXPERIMENTAL_READOUT: hERG current change (%, negative = inhibition) at 10uM (%)
# unit: % | format: bare number

Use these answered entries as a reference point.
Query :: Request body: readout hERG current change (%, negative = inhibition) at 10uM, system human ether-à-go-go-related gene (hERG) potassium channel (human), query "O=C(CCCN1C(=O)c2ccccc2C1=O)NCCc1ccc(OC(F)F)cc1" . Return the value.
Result :: -65.3

Query :: Request body: readout hERG current change (%, negative = inhibition) at 10uM, system human ether-à-go-go-related gene (hERG) potassium channel (human), query "CCOC(=O)CSc1nc(=O)n2ccccc2n1" . Return the value.
Result :: 13.2

Others:
Query :: Request body: readout hERG current change (%, negative = inhibition) at 10uM, system human ether-à-go-go-related gene (hERG) potassium channel (human), query "O=C(N/N=C/C(Br)=C/c1ccccc1)c1ccccc1F" . Return the value.
Result :: -38.5

Query :: Request body: readout hERG current change (%, negative = inhibition) at 10uM, system human ether-à-go-go-related gene (hERG) potassium channel (human), query "Cc1ccc(CNC(=O)CSc2nc(N3CCCCC3)nc(N3CCCCC3)n2)cc1" . Return the value.
Result :: 7.64

Query :: Request body: readout hERG current change (%, negative = inhibition) at 10uM, system human ether-à-go-go-related gene (hERG) potassium channel (human), query "CCOc1cccc(=O)c2c(C)n(Cc3ccccc3)c(C)c12" . Return the value.
Result :: 11.8

Query :: Request body: readout hERG current change (%, negative = inhibition) at 10uM, system human ether-à-go-go-related gene (hERG) potassium channel (human), query "COc1ccccc1NCc1ccc([N+](=O)[O-])s1" . Return the value.
Result :: -47.7

Query :: Request body: readout hERG current change (%, negative = inhibition) at 10uM, system human ether-à-go-go-related gene (hERG) potassium channel (human), query "COc1ccc(N2CCN(C(=O)c3ccc(OCc4c(C)noc4C)c(OC)c3)CC2)cc1" . Return the value.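 Note: peak tail current of the secondary pulse compared with the same well before compound.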
Result :: 6.01

Query :: Request body: readout hERG current change (%, negative = inhibition) at 10uM, system human ether-à-go-go-related gene (hERG) potassium channel (human), query "COc1ccc(CCNC(=O)CCCCCN2C(=O)c3ccccc3C2=O)cc1" . Return the value.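 Note: peak tail current of the secondary pulse compared with the same well before compound.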
Result :: -28.6

Query :: Request body: readout hERG current change (%, negative = inhibition) at 10uM, system human ether-à-go-go-related gene (hERG) potassium channel (human), query "Cc1ccccc1CN1CCN(CC(=O)NCCCN2CCN(c3ccc(F)cc3)CC2)C1=O" . Return the value.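 Note: peak tail current of the secondary pulse compared with the same well before compound.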
Result :: -71.2

###

molecular target: human ether-à-go-go-related gene (hERG) potassium channel (human, UniProt Q12809); assay: primary screen, population patch clamp on CHO cells stably expressing hERG; higher = less effect of the substance;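 note: peak tail current of the secondary pulse compared with the same well before compound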
Sequence (Q12809 whole entry, looked up): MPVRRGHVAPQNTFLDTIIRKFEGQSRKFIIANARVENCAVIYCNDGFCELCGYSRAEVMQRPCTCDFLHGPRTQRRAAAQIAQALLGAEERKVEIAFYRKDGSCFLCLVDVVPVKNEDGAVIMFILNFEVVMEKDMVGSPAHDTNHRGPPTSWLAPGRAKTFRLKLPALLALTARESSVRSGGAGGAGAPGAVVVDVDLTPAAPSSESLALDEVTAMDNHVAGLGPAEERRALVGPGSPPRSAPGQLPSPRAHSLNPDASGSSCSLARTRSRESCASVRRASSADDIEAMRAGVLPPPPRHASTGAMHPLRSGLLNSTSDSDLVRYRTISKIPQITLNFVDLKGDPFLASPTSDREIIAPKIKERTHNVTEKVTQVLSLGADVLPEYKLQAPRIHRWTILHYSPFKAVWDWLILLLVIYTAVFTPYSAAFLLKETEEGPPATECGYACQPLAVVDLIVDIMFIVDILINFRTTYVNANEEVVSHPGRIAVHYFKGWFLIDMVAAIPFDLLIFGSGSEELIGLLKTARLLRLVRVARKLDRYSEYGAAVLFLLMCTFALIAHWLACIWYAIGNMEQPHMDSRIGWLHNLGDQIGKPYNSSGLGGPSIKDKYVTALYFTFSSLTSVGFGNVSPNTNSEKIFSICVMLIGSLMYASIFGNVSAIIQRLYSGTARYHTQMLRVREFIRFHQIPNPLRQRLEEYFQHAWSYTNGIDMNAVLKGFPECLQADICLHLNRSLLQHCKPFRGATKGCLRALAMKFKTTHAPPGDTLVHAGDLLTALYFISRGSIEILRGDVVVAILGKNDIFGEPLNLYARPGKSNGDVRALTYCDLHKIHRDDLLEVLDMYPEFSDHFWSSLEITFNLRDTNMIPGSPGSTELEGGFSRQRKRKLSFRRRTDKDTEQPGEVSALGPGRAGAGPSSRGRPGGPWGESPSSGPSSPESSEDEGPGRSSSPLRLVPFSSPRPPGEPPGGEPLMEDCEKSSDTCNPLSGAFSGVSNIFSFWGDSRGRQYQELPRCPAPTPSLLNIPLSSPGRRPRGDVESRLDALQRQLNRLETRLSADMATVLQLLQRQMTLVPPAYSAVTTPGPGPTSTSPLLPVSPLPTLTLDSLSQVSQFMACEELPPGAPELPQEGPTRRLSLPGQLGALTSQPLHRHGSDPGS
Out of some 310,000 compounds screened, about 14,000 (4.5%) showed an effect of 50% or more. Effects have a minus sign here. The list comes from a sample in which strong results are over-represented; it also holds close analogues and randomly drawn compounds.
Quick rule for you: hERG current change (%, negative = inhibition) at 10uM at -40% or higher means 1, lower means 0.

Query :: Threshold query (hERG current change (%, negative = inhibition) at 10uM >= -40%) on "Cc1ccc(S(=O)(=O)NCc2ccccc2)cc1C(=O)N(C)CC(=O)Nc1c(Cl)cccc1Cl"
Result :: 1

Query :: Threshold query (hERG current change (%, negative = inhibition) at 10uM >= -40%) on COCc1ccc(CN2CCc3c([nH]c4ccccc34)C2C(C)(C)C)o1 (centres unmarked)
Result :: 1

Query :: Threshold query (hERG current change (%, negative = inhibition) at 10uM >= -40%) on "CCc1ccc2c(c1)C(c1cccs1)=NNC(c1cccnc1)=N2"
Result :: 0

Query :: Threshold query (hERG current change (%, negative = inhibition) at 10uM >= -40%) on "COc1ccc(S(=O)(=O)N2CCCCCC2)cc1C(=O)N(C)Cc1c(F)cccc1Cl"
Result :: 0

Query :: Threshold query (hERG current change (%, negative = inhibition) at 10uM >= -40%) on CC(C)CC1c2[nH]c3ccccc3c2CCN1C(=O)CCC(=O)N(C)C (centres unmarked)
Result :: 1

Query :: Threshold query (hERG current change (%, negative = inhibition) at 10uM >= -40%) on "CC(=O)Nc1nc2ccc(S(=O)(=O)N3CCCCC3)cc2s1"
Result :: 1

Query :: Threshold query (hERG current change (%, negative = inhibition) at 10uM >= -40%) on "COc1ccc2c(c1)C(c1cccs1)=NNC(c1cccnc1)=N2"
Result :: 1

Query :: Threshold query (hERG current change (%, negative = inhibition) at 10uM >= -40%) on CCn1ccnc1CN1CCc2c([nH]c3ccccc23)C1C(C)(C)C (centres unmarked)
Result :: 0

Query :: Threshold query (hERG current change (%, negative = inhibition) at 10uM >= -40%) on CCn1ccnc1CN1CCc2c([nH]c3ccccc23)C1CC(C)C (centres unmarked)
Result :: 0

Query :: Threshold query (hERG current change (%, negative = inhibition) at 10uM >= -40%) on "COc1ccc(S(=O)(=O)N2CCOCC2)cc1C(=O)N(C)Cc1ccccc1F"
Result :: 1

Others:
Query :: Threshold query (hERG current change (%, negative = inhibition) at 10uM >= -40%) on "O=C(NNc1cccc(Cl)c1)c1cccnc1Oc1ccccc1"
Result :: 1
